These entries and their values trace back to ChEMBL document CHEMBL3046404.

# measurement.protocol: Toxicity against BALB/c Mus musculus (mouse) peritoneal macrophages assessed as concentration required for cell lysis after 48 hr
# Type: cell-based, Peritoneal macrophage cell
# measurement.conditions: read-out: Activity
// reported MCC at 48 h for each item listed

Worked examples follow.
Could you share which MCC at 48 h value was measured for O=C1CN(c2ccccc2Cl)C(=O)CN1c1ccccc1Cl ?
> 25 µg/mL

Could you share which MCC at 48 h value was measured for O=C1CN(c2ccc(Cl)cc2Cl)C(=O)CN1c1ccc(Cl)cc1Cl ?
> 35 µg/mL

Could you share which MCC at 48 h value was measured for O=C1CN(c2cc(Cl)ccc2Cl)C(=O)CN1c1cc(Cl)ccc1Cl ?
> 60 µg/mL

Further cases:
Could you share which MCC at 48 h value was measured for O=C1CN(c2cccc(Cl)c2Cl)C(=O)CN1c1cccc(Cl)c1Cl ?
> 50 µg/mL

Could you share which MCC at 48 h value was measured for C[C@@H]1[C@H](O)[C@@H](C)/C=C/C=C/C=C/C=C/C=C/C=C/C=C/[C@H](O[C@@H]2O[C@H](C)[C@@H](O)[C@H](N)[C@@H]2O)C[C@@H]2O[C@](O)(C[C@@H](O)C[C@@H](O)[C@H](O)CC[C@@H](O)C[C@@H](O)CC(=O)O[C@H]1C)C[C@H](O)[C@H]2C(=O)O ?
> 4 µg/mL

Could you share which MCC at 48 h value was measured for O=C1CN(c2ccccc2)C(=O)CN1c1ccccc1 ?
> 30 µg/mL

Could you share which MCC at 48 h value was measured for COc1ccc(Cl)cc1N1CC(=O)N(c2cc(Cl)ccc2OC)CC1=O ?
> 100 µg/mL

Could you share which MCC at 48 h value was measured for O=C1CN(c2c(Cl)cc(Cl)cc2Cl)C(=O)CN1c1c(Cl)cc(Cl)cc1Cl ?
> 70 µg/mL

Could you share which MCC at 48 h value was measured for COc1ccc(N2CC(=O)N(c3ccc(OC)cc3)CC2=O)cc1 ?
> 60 µg/mL

Could you share which MCC at 48 h value was measured for CC(=O)c1cccc(N2CC(=O)N(c3cccc(C(C)=O)c3)CC2=O)c1 ?
> 50 µg/mL

Could you share which MCC at 48 h value was measured for O=C1CN(c2cccc(Cl)c2)C(=O)CN1c1cccc(Cl)c1 ?
> 25 µg/mL

Could you share which MCC at 48 h value was measured for N=C(N)c1ccc(OCCCCCOc2ccc(C(=N)N)cc2)cc1 ?
> 90 µg/mL

Could you share which MCC at 48 h value was measured for Cc1ccc(N2CC(=O)N(c3ccc(C)cc3)CC2=O)cc1 ?
> 40 µg/mL

Could you share which MCC at 48 h value was measured for O=C1CN(C2CCCCC2)C(=O)CN1C1CCCCC1 ?
> 50 µg/mL
